- TARGET OR SYSTEM: PPARγ LBD (wt) / MED1 LxxLL peptide (Homo sapiens)
- Construct: 6× His tag with TEV recognition site (N, cleaved yes); made in house; host or cells: E. coli BL21 (DE3) gold
- Sequence (P37231 230-505): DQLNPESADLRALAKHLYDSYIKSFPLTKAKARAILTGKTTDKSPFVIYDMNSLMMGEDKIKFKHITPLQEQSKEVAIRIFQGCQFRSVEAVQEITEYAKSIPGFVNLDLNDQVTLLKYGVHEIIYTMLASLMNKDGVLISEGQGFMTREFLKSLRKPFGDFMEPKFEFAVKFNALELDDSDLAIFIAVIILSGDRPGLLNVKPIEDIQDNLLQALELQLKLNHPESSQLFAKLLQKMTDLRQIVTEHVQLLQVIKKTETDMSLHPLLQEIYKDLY
- TEST SUMMARY: Fluorescence anisotropy, MED1 peptide to wt PPARγ LBD (alone or ligand bound)
- Assay type: binding
- EXPERIMENTAL CONTEXT: read-out: MED1 WT Kd; Supp. Table 1; wt PPARγ LBD; FITC peptide 50 nM, fluorescence anisotropy, pH 7.4, 2 h room temperature
OBSERVABLE: Kd
State the value with its unit after it.

Ask: Tell me its Kd given O=C(Nc1ccccc1)c1cc([N+](=O)[O-])ccc1Cl as the entry.
Result: 4.9 µM

====

- TARGET OR SYSTEM: PPARγ LBD (wt) / NCoR CoRNR box peptide (Homo sapiens, UniProt P37231)
- Construct: 6× His tag with TEV recognition site (N, cleaved yes); made in house; host or cells: E. coli BL21 (DE3) gold
- TEST SUMMARY: Fluorescence anisotropy, NCoR peptide to wt PPARγ LBD (alone or ligand bound)
- Type: binding
- EXPERIMENTAL CONTEXT: read-out: NCoR Kd, wt; Supp. Table 2; wt values not from the same experiment as PPARγC313A,Q322C-BTFA (first wt column)
OBSERVABLE: pKd
Lab note — pKd values are minus log10 of concentrations in M.

Ask: Look up pKd of O=C(Nc1ccccc1)c1cc([N+](=O)[O-])ccc1Cl and report it.
Result: 6.56

====

- TARGET OR SYSTEM: K329A PPARγ LBD / SMRT peptide (Homo sapiens, UniProt P37231, K329A)
- Construct: 6× His tag with TEV recognition site (N, cleaved yes); made in house; host or cells: E. coli BL21 (DE3) gold
- TEST SUMMARY: Fluorescence anisotropy, SMRT peptide to K329A PPARγ LBD
- Assay type: binding
- EXPERIMENTAL CONTEXT: run SMRT FP 4 10 18; T0070907 value 5903 excluded by the authors; read-out: SMRT dissociation constant, K329A
OBSERVABLE: Kd
Number plus unit, in that order.

Ask: Answer with reported Kd of O=C(Nc1ccccc1)c1cc([N+](=O)[O-])ccc1Cl
Result: 4.47 µM

====

- TARGET OR SYSTEM: K347A PPARγ LBD / SMRT peptide (Homo sapiens, UniProt P37231, K347A)
- Construct: 6× His tag with TEV recognition site (N, cleaved yes); made in house; host or cells: E. coli BL21 (DE3) gold
- TEST SUMMARY: Fluorescence anisotropy, SMRT peptide to K347A PPARγ LBD
- Type: binding
- EXPERIMENTAL CONTEXT: run SMRT FP 4 6 18; read-out: SMRT dissociation constant, K347A
- Experimental: These samples were then plated as usual.
OBSERVABLE: pKd
Bear in mind: pKd is minus log10 of a mol/L concentration; give just that figure.

Ask: Provide only the value of recorded pKd for O=C(Nc1ccccc1)c1cc([N+](=O)[O-])ccc1Cl
Result: 6.20

====

- TARGET OR SYSTEM: K347A PPARγ LBD / SMRT peptide (Homo sapiens, UniProt P37231, K347A)
- Construct: 6× His tag with TEV recognition site (N, cleaved yes); made in house; host or cells: E. coli BL21 (DE3) gold
- TEST SUMMARY: Fluorescence anisotropy, SMRT peptide to K347A PPARγ LBD
- Format: binding
- EXPERIMENTAL CONTEXT: Supp. Fig. 12; read-out: SMRT dissociation constant average, K347A
OBSERVABLE: Kd (nM)
Only the number, expressed in nM, is required.

Ask: Input O=C(Nc1ccccc1)c1cc([N+](=O)[O-])ccc1Cl , output reported Kd.
Result: 570

====

- TARGET OR SYSTEM: PPARγ LBD (wt) / NCoR CoRNR box peptide (Homo sapiens, UniProt P37231)
- Construct: 6× His tag with TEV recognition site (N, cleaved yes); made in house; host or cells: E. coli BL21 (DE3) gold
- TEST SUMMARY: Fluorescence anisotropy, NCoR peptide to wt PPARγ LBD (alone or ligand bound)
- Format: binding
- EXPERIMENTAL CONTEXT: read-out: NCoR dissociation constant average, wt; Supp. Fig. 11
- Description: These samples were then plated as usual.
OBSERVABLE: Kd
Units required after the number.

Ask: Supply recorded Kd for O=C(Nc1ccccc1)c1cc([N+](=O)[O-])ccc1Cl here.
Result: 255 nM

====

- TARGET OR SYSTEM: wt PPARg LBD
- TEST SUMMARY: Supplementary Figure 11: fluorescence anisotropy dissociation constants, wt PPARγ LBD (peptide not given)
- Type: binding
- EXPERIMENTAL CONTEXT: data set FP 3 15 18 Inverse agonism part 2, read-out: dissociation constant
OBSERVABLE: pKd
Notebook: values listed as pKd are -log10 of the concentration (mol/L).

Ask: Return reported pKd. Input compound: O=C(Nc1ccccc1)c1cc([N+](=O)[O-])ccc1Cl
Result: 6.57

====

- TARGET OR SYSTEM: PPARγ LBD (wt) / NCoR CoRNR box peptide (Homo sapiens)
- Construct: 6× His tag with TEV recognition site (N, cleaved yes); made in house; host or cells: E. coli BL21 (DE3) gold
- TEST SUMMARY: Fluorescence anisotropy, NCoR peptide to wt PPARγ LBD (alone or ligand bound)
- Format: binding
- EXPERIMENTAL CONTEXT: read-out: NCoR Kd; WT, ligand-bound, run 1
- Method: These samples were then plated as usual.
OBSERVABLE: pKd
Scale: pKd equals -log10([C]), with [C] in mol/L.

Ask: Using the record for O=C(Nc1ccccc1)c1cc([N+](=O)[O-])ccc1Cl , state its measured pKd.
Result: 6.66

====

- TARGET OR SYSTEM: PPARγ LBD (wt) / SMRT CoRNR box peptide (Homo sapiens)
- Construct: 6× His tag with TEV recognition site (N, cleaved yes); made in house; host or cells: E. coli BL21 (DE3) gold
- TEST SUMMARY: Fluorescence anisotropy, SMRT peptide to wt PPARγ LBD (alone or ligand bound)
- Format: binding
- EXPERIMENTAL CONTEXT: run SMRT FP 4 6 18; read-out: SMRT dissociation constant, WT
OBSERVABLE: Kd (nM)
Please reply with the bare figure in nM and do not write the unit itself.

Ask: Provide only the value of recorded Kd for O=C(Nc1ccccc1)c1cc([N+](=O)[O-])ccc1Cl
Result: 482

====

- TARGET OR SYSTEM: K329A PPARγ LBD / SMRT peptide (Homo sapiens, UniProt P37231, K329A)
- Construct: 6× His tag with TEV recognition site (N, cleaved yes); made in house; host or cells: E. coli BL21 (DE3) gold
- Sequence (P37231 230-505 K329A): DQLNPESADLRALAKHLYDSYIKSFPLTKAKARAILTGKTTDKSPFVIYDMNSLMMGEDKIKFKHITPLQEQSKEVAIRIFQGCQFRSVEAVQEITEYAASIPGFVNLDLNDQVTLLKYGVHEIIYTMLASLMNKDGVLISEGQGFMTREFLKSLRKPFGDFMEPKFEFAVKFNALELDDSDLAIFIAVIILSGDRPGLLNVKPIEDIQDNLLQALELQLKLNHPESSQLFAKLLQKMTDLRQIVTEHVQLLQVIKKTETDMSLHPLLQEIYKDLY
- TEST SUMMARY: Fluorescence anisotropy, SMRT peptide to K329A PPARγ LBD
- Format: binding
- EXPERIMENTAL CONTEXT: Supp. Fig. 12; read-out: SMRT dissociation constant average, K329A
OBSERVABLE: pKd
In plain terms, pKd is the concentration in mol/L turned into minus its base-10 logarithm.

Ask: Output pKd of O=C(Nc1ccccc1)c1cc([N+](=O)[O-])ccc1Cl [GW9662]
Result: 5.59

====

- TARGET OR SYSTEM: PPARγ LBD (wt) / NCoR CoRNR box peptide (Homo sapiens)
- Construct: 6× His tag with TEV recognition site (N, cleaved yes); made in house; host or cells: E. coli BL21 (DE3) gold
- TEST SUMMARY: Fluorescence anisotropy, NCoR peptide to wt PPARγ LBD (alone or ligand bound)
- Assay type: binding
- EXPERIMENTAL CONTEXT: read-out: NCoR WT Kd; Supp. Table 1; wt PPARγ LBD; FITC peptide 50 nM, fluorescence anisotropy, pH 7.4, 2 h room temperature; average of two technical replicates
OBSERVABLE: Kd (nM)
Please respond with the number in nM and leave the unit unwritten.

Ask: Note Kd for the molecule shown: O=C(Nc1ccccc1)c1cc([N+](=O)[O-])ccc1Cl [GW9662]
Result: 420
